Listed next: entries and their corresponding phosphorylation enrichment.
- TEST_TARGET: FGFR3 (UniProt P22607)
- Sequence (P22607 whole entry, looked up): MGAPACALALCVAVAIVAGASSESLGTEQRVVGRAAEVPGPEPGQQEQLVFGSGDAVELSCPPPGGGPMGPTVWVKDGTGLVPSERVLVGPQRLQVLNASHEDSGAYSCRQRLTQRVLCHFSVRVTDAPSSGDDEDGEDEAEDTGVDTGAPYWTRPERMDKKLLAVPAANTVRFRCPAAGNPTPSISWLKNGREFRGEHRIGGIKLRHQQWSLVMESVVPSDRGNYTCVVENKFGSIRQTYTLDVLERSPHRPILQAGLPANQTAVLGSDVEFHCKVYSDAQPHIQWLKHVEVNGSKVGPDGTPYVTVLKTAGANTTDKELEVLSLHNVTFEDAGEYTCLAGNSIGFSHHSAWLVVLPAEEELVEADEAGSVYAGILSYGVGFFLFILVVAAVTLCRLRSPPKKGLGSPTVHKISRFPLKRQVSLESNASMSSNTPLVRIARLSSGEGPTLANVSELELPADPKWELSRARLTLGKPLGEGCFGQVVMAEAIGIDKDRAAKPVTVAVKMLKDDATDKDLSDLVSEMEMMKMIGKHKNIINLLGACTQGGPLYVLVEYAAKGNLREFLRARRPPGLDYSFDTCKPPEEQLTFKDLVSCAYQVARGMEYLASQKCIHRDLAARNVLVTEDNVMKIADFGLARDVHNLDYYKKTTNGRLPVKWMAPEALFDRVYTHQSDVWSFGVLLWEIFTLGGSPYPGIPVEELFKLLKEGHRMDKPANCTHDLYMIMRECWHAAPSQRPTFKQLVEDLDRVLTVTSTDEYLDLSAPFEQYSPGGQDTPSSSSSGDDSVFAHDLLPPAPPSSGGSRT
- TEST_DESCRIPTION: phosphorylation enrichment, bacterial display (enrichment ratio); higher = better substrate or ligand; peptides without Tyr show the background;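 note: 11-residue human phosphosite peptides and single-mutation variants displayed on the E. coli surface, counted by deep sequencing, each peptide's frequency after selection divided by its frequency in the unselected input library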;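 note: frequency after pTyr selection over input frequency; kinase dosed for 20-30% of maximal phosphorylation in three min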
OBSERVED_PROPERTY: phosphorylation enrichment

SEQUENCE_ENTRY | OBSERVED_MEASUREMENT
HSDFQYSQRSQ [PKP2_Y168_YF] | 0.608
NIKKEYAKMVQ [PMS2_Y181] | 0.39
CEHRGFLYLAI [TEK_Y897_Y897F] | 0.698
ITGNGYFFRVF [MYBPC3_Y1135_I1131T_YF] | 0.595
KIIRRYVSSEG [ANK2_Y3907] | 0.34
TSPKSYPSQKH [CAP2_Y316] | 0.497

The measured values listed here are drawn from the supplement of paper PMC10065799.
